- SYSTEM NAME: hSTING (Homo sapiens, UniProt Q86WV6, G230A/H232R/R293Q/R71H)
- Construct: host or cells: THP1-Dual KO-IFNAR2 cells
- Sequence (Q86WV6 whole entry R71H/G230A/H232R/R293Q): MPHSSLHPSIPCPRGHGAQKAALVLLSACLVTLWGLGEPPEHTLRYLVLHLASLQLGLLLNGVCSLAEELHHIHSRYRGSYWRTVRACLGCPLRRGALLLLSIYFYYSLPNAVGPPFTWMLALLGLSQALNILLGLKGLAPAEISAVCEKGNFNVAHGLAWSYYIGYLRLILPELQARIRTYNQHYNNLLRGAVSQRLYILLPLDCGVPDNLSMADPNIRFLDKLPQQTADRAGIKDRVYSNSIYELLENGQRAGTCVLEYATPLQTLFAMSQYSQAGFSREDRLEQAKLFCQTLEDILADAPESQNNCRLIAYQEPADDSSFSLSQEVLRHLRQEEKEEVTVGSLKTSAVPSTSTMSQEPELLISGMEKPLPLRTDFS
- MEASUREMENT DESCRIPTION: STING reporter assay (luciferase) in THP1-Dual KO-IFNAR2 cells activated with 2′3′cGAMP
- Assay type: cell-based
- STATED CONDITIONS: THP1-Dual KO-IFNAR2 cells; 2′3′cGAMP 15 μM final, Lipofectamine 2000; 24 h; luciferase reporter activity; read-out: hSTING EC50
pEC50: −log10 of the molar value.
READOUT KIND: pEC50

Solved entries (count: 2):
{"COMPOUND": "Cc1nc(C(=O)Nc2c[nH]c3cc(F)c(F)cc23)c2ccc(C(F)(F)F)cn12 [Compound 134]", "READOUT KIND": "pEC50", "MEASURED VALUE": "4.00 to 5.30"}
{"COMPOUND": "O=C(Nc1c[nH]c2cc(F)c(F)cc12)c1n[nH]c2c1CN(CC(F)(F)F)C2 [Compound 151]", "READOUT KIND": "pEC50", "MEASURED VALUE": "4.00 to 5.30"}

Reported pEC50, compound O=C(Nc1c[nH]c2cc(F)c(F)cc12)c1cn2cc(C(F)(F)F)ccc2n1 [Compound 113] : ____
5.30 to 6.00

Reported pEC50, compound CC(C)(C)OC(=O)N1CCc2c(C(=O)Nc3c[nH]c4cc(F)c(F)cc34)csc2C1 [Compound 109] : ____
6.00 to 6.70

---

- SYSTEM NAME: hSTING (Homo sapiens, UniProt Q86WV6, G230A/H232R/R293Q/R71H)
- Construct: host or cells: THP1-Dual KO-IFNAR2 cells
- MEASUREMENT DESCRIPTION: STING reporter assay (luciferase) in THP1-Dual KO-IFNAR2 cells activated with 2′3′cGAMP
- Type: cell-based
- STATED CONDITIONS: THP1-Dual KO-IFNAR2 cells; 2′3′cGAMP 15 μM final, Lipofectamine 2000; 24 h; luciferase reporter activity; read-out: hSTING EC50
Parameter EC50: see the listing below.

Solved entries (count: 8):
{"MOLECULE": "CC(C)(C)OC(=O)N1CCn2nc(C(=O)Nc3c[nH]c4cc(F)c(F)cc34)cc2C1", "EC50": "1000 to 5000 nM"}
{"MOLECULE": "O=C(Nc1c[nH]c2cc(F)c(F)cc12)c1n[nH]c2cc(OCC(F)(F)F)ncc12", "EC50": "200 to 1000 nM"}
{"MOLECULE": "O=C(Nc1c[nH]c2cc(F)c(F)cc12)c1cc2ccc(Cl)cn2n1", "EC50": "200 to 1000 nM"}
{"MOLECULE": "O=C(Nc1c[nH]c2cc(F)c(F)cc12)c1cnc2cc(C(F)(F)F)ccn12", "EC50": "1000 to 5000 nM"}
{"MOLECULE": "Cn1nc2cc(C(F)(F)F)ccc2c1C(=O)Nc1c[nH]c2cc(F)c(F)cc12", "EC50": "5000 to 100000 nM"}
{"MOLECULE": "O=C(Nc1c[nH]c2cc(F)c(F)cc12)c1cccc2nn(Cc3ccc(C(F)(F)F)cc3)cc12", "EC50": "200 to 1000 nM"}
{"MOLECULE": "O=C(Nc1c[nH]c2cc(F)c(F)cc12)c1c2ccccc2nn1Cc1ccc(C(F)(F)F)cc1", "EC50": "1000 to 5000 nM"}
{"MOLECULE": "O=C(Nc1c[nH]c2cc(F)c(F)cc12)c1cc2cccnc2s1", "EC50": "1000 to 5000 nM"}

Reported EC50, molecule O=C(Nc1c[nH]c2ccc(Cl)cc12)c1n[nH]c2cc(N3CCC(F)(F)CC3)ncc12 : ____
5000 to 100000 nM

Reported EC50, molecule O=C(Nc1c[nH]c2cc(F)c(F)cc12)C1Cc2[nH]nc(C(F)(F)F)c2C1 (stereo not shown) : ____
5000 to 100000 nM

Reported EC50, molecule O=C(Nc1c[nH]c2ccc(Cl)cc12)c1noc2cc(N3CCC(F)(F)CC3)ccc12 : ____
40 to 200 nM

Reported EC50, molecule O=C(Nc1c[nH]c2cc(F)c(F)cc12)c1cccc2c1cnn2CCC(F)(F)F : ____
1000 to 5000 nM

Reported EC50, molecule O=C(Nc1c[nH]c2cc(F)c(F)cc12)c1cccc2c1cnn2Cc1ccc(C(F)(F)F)cc1 : ____
200 to 1000 nM

Reported EC50, molecule O=C(Nc1c[nH]c2ccc(Cl)cc12)c1n[nH]c2cc(OCC(F)(F)F)ccc12 : ____
40 to 200 nM

Reported EC50, molecule O=C(Nc1c[nH]c2ccc(Cl)cc12)c1n[nH]c2cc(N3CCN(CC(F)(F)F)CC3)ccc12 : ____
40 to 200 nM

Reported EC50, molecule O=C(Nc1c[nH]c2cc(F)c(F)cc12)c1n[nH]c2cc(N3CCC(F)(F)CC3)ccc12 : ____
40 to 200 nM

Reported EC50, molecule CC(C)(C)OC(=O)N1Cc2n[nH]c(C(=O)Nc3c[nH]c4cc(F)c(F)cc34)c2C1 : ____
1000 to 5000 nM

Reported EC50, molecule Cn1nc(C(=O)Nc2c[nH]c3cc(F)c(F)cc23)c2ccc(C(F)(F)F)cc21 : ____
200 to 1000 nM

Reported EC50, molecule O=C(Nc1c[nH]c2cc(F)c(F)cc12)c1cccc2nn(CCC(F)(F)F)cc12 : ____
200 to 1000 nM

Reported EC50, molecule O=C(Nc1c[nH]c2ccc(Cl)cc12)c1n[nH]c2c1CN(Cc1ccc(C(F)(F)F)cc1)C2 : ____
200 to 1000 nM

Reported EC50, molecule CC1(C)CCc2c(C(=O)Nc3c[nH]c4cc(F)c(F)cc34)n[nH]c2C1 : ____
1000 to 5000 nM

Reported EC50, molecule O=C(Nc1c[nH]c2ccc(Cl)cc12)c1n[nH]c2cc(N3CCC(F)(F)CC3)ccc12 : ____
40 to 200 nM

Reported EC50, molecule CCC1Cc2ccc(C(=O)Nc3c[nH]c4cc(F)c(F)cc34)cc2C1 (stereo not shown) : ____
200 to 1000 nM

Reported EC50, molecule O=C(Nc1c[nH]c2cc(F)c(F)cc12)c1cn2c(n1)CCC(C(F)(F)F)C2 (stereo not shown) : ____
5000 to 100000 nM

Reported EC50, molecule O=C(Nc1c[nH]c2cc(F)c(F)cc12)c1ccc2c(c1)OCCCO2 : ____
200 to 1000 nM
